Attribution: the Human Domainome abundance scans (Beltran et al. 2025)

B1: Zinc finger MYM-type protein 6, residues 427 to 504; numbered along this chain, O95789 (parent)
chain: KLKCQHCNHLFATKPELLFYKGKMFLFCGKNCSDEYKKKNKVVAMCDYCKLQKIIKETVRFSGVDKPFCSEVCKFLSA

- Variants of: B1
- Experiment: abundance fitness (aPCA) (normalised: wild type 0, dead -1); higher = more abundant; growth selection in yeast, the domain comes from the species named
- Conditions used: Homo sapiens
Below is a list of entries, each paired with its recorded abundance fitness value.
Keep the answer to the number alone.

Sample records with abundance fitness:
{"Variant notation": "E35T", "abundance fitness": -0.127}
{"Variant notation": "C73R", "abundance fitness": -0.863}
{"Variant notation": "Y48K", "abundance fitness": -0.496}
{"Variant notation": "K74T", "abundance fitness": -0.017}
{"Variant notation": "Q52W", "abundance fitness": -0.483}

I'd like to know its abundance fitness. The variant in question is G29Q -0.09

I'd like to know its abundance fitness. The variant in question is C32E -1.01

I'd like to know its abundance fitness. The variant in question is L76G -0.052

I'd like to know its abundance fitness. The variant in question is A78M 0.774

I'd like to know its abundance fitness. The variant in question is D34E -0.033

I'd like to know its abundance fitness. The variant in question is C46E -0.674

I'd like to know its abundance fitness. The variant in question is K56Q -0.044
